# credit: ChEMBL document CHEMBL3992491

Molecular target: Kappa-type opioid receptor (Homo sapiens)
Sequence (P41145 whole entry): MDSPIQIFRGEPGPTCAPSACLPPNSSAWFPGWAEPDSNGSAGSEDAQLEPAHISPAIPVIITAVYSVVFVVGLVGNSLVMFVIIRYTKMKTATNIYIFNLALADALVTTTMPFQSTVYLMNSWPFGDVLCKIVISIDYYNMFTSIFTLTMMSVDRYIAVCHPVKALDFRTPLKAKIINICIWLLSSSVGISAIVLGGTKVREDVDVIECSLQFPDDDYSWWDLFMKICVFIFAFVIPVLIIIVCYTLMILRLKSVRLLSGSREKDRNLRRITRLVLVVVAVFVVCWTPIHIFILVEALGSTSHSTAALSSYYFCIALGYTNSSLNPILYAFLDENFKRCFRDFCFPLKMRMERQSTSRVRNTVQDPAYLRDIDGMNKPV
Assay: Agonist activity at human KOR expressed in HEK293 cells assessed as inhibition of forskolin-induced adenylyl cyclase-mediated cAMP accumulation after 30 mins by HTRF assay
PROPERTY NAME: IC50
Reply with a number, then the unit it belongs to.

Cc1ccc(C(=O)NCC2c3ccccc3CCN2C)cc1 (configuration not stated) = 140 nM

Q: Endpoint output: IC50 of COc1ccc(C(=O)NCC2NCCc3ccccc32)cc1 (configuration not stated) . Value?
Ans: 50 nM

Q: Try this molecule too: CCc1ccc(C(=O)NCC2c3ccccc3CCN2C)cc1 (configuration not stated)
Ans: 490 nM

Q: Try this molecule too: Cc1cccc(C(=O)NCC2NCCc3ccccc32)c1 (configuration not stated)
Ans: 140 nM
